- study.target: full-length beta-Catenin (Uniprot ID P35222) (Homo sapiens)
- Construct: 10 nM full-length beta-Catenin (Uniprot ID P35222)
- Sequence (P35222 whole entry): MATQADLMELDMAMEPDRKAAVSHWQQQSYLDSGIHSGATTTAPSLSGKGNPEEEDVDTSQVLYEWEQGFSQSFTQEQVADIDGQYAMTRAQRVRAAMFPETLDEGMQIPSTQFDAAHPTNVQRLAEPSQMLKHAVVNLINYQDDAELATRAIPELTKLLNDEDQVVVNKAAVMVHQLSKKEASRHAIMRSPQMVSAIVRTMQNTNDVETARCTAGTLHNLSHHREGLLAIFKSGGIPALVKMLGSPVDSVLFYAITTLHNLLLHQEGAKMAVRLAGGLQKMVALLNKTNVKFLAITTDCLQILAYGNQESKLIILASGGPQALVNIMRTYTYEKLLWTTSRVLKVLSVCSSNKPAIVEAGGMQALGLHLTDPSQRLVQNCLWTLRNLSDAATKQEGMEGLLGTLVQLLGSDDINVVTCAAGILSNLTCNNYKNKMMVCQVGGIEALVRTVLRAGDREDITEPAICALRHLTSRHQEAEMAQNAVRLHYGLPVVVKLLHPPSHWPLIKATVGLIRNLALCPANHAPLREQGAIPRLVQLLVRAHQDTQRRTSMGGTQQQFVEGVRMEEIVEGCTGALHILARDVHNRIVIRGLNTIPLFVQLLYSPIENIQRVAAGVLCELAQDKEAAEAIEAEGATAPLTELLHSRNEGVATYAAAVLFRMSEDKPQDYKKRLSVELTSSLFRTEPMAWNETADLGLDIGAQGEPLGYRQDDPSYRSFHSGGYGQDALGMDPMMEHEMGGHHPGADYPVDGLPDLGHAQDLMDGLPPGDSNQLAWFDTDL
- protocol.text: Fluorescence polarization IC50 (beta-catenin / 5FAM-TCF4 10-53 competition)
- Type: binding
- test.context: fluorescence polarization; read-out: beta-Catenin FP IC50
measurement.type: IC50 (nM)
Dear colleague, please return just the value in nM, with no unit written.

compound	IC50 / nM
CC(=O)N1CCC[C@]12CC=CCCCC1(CCCC=CCCCOC(=O)N3CC[C@@](C(=O)N[C@@H](Cc4ccsc4)C(=O)N[C@@H](Cc4csc5ccccc45)C(=O)N[C@H](C(N)=O)[C@@H](C)O)(C3)NC(=O)[C@H](CC(N)=O)NC(=O)[C@H](Cc3ccccc3)NC(=O)[C@H](C)NC(=O)C(C)(C)NC(=O)[C@H]([C@@H](C)O)NC(=O)[C@H](CC(N)=O)NC1=O)NC(=O)[C@H](CC(C)(C)C)NC(=O)[C@H](CC(=O)O)NC2=O (stereo partly drawn) [I-2416]	133

Sample CCCC[C@@H]1NC(=O)[C@H](CN(CC(=O)O)CC(F)(F)F)NC(=O)[C@H](CC(=O)O)NC(=O)C2(CCCC=CCCCOC(=O)N3CC[C@@](C(=O)N[C@@H](Cc4ccccc4Cl)C(=O)N[C@@H](Cc4csc5ccccc45)C(=O)N[C@@H](CCC(N)=O)C(N)=O)(C3)NC(=O)[C@H]([C@@H](C)O)NC(=O)[C@H](Cc3ccccc3)NC(=O)CNC1=O)CCCC=CC[C@]1(CCCN1C(C)=O)C(=O)N[C@@H](CC(=O)O)C(=O)N[C@@H](CC(C)(C)C)C(=O)N2 (stereo partly drawn) [I-1695] — what was its IC50?
93

How about CC(=O)N1CCC[C@]12CC=CCCCC1(CCCC=CCCCOC(=O)N3CC[C@@](C(=O)N[C@@H](Cc4ccccc4)C(=O)N[C@@H](Cc4c[nH]c5ccccc45)C(=O)N[C@@H](CCC(N)=O)C(N)=O)(C3)NC(=O)[C@H](CC(C)C)NC(=O)[C@H](Cc3ccccc3)NC(=O)[C@H](C)NC(=O)[C@H](C)NC(=O)[C@H](CC(=O)O)NC(=O)[C@H](CC(=O)O)NC1=O)NC(=O)[C@H](CC(C)C)NC(=O)[C@H](CC(=O)O)NC2=O (stereo partly drawn) [I-1811] ?
156

----------
- protocol.text: Solubility in PBS
- Format: physicochemical
- test.context: Solubility (uM)
Catalogue of Solubility values
Could you give me the number in µM? Just the number is fine.

Below are worked cases with known answers.
molecule	value
CC(=O)N1CCC[C@]12CC=CCCCC1(CCCC=CCCCCCC[C@@](C)(C(=O)N[C@@H](CC(N)=O)C(=O)N[C@@H](Cc3c[nH]c4ccccc34)C(=O)N[C@@H](CCC(N)=O)C(N)=O)NC(=O)[C@H](C(C)C)NC(=O)[C@H](Cc3ccccc3)NC(=O)[C@H](C)NC(=O)[C@H](C)NC(=O)[C@H](CC(=O)O)NC(=O)[C@H](CC(=O)O)NC1=O)NC(=O)[C@H](C)NC(=O)[C@H](CC(=O)O)NC2=O (stereo partly shown)	40
CC(=O)N1CCC[C@]12CC=CCCCC1(CCCC=CCCCOC(=O)N3CC[C@@](C(=O)N[C@@H](Cc4ccccc4Cl)C(=O)N[C@@H](Cc4csc5ccccc45)C(=O)N[C@@H](CCC(N)=O)C(N)=O)(C3)NC(=O)[C@H](CC(N)=O)NC(=O)[C@H](Cc3ccccc3)NC(=O)[C@H](C)NC(=O)[C@H](CC(C)C)NC(=O)[C@H](CN(CC(=O)O)CC(F)(F)F)NC(=O)[C@H](CC(=O)O)NC1=O)NC(=O)[C@H](CC(C)(C)C)NC(=O)[C@H](CC(=O)O)NC2=O (stereo partly shown)	18
COc1cccc(C[C@@H]2NC(=O)[C@H](C)NC(=O)[C@H](C)NC(=O)[C@H](CC(=O)O)NC(=O)[C@H](CC(=O)O)NC(=O)C3(CCCC=CCCCOC(=O)N4CC[C@@](C(=O)N[C@@H](Cc5ccccc5)C(=O)N[C@@H](Cc5csc6ccccc56)C(=O)N[C@@H](CCC(N)=O)C(N)=O)(C4)NC(=O)[C@H](CC(C)C)NC2=O)CCCC=CC[C@]2(CCCN2C(C)=O)C(=O)N[C@@H](CC(=O)O)C(=O)N[C@@H](CC(C)(C)C)C(=O)N3)c1 (stereo partly shown)	47
COc1ccccc1C[C@H](NC(=O)[C@]12CCN(C1)C(=O)OCCCC=CCCCC1(CCCC=CC[C@]3(CCCN3C(C)=O)C(=O)N[C@@H](CC(=O)O)C(=O)N[C@@H](CC(C)(C)C)C(=O)N1)C(=O)N[C@@H](CC(=O)O)C(=O)N[C@@H](CC(=O)O)C(=O)N[C@@H](C)C(=O)N[C@@H](C)C(=O)N[C@@H](Cc1ccccc1)C(=O)N[C@@H](CC(N)=O)C(=O)N2)C(=O)N[C@@H](Cc1csc2ccccc12)C(=O)N[C@@H](Cc1c[nH]cn1)C(N)=O (stereo partly shown)	41
CC(=O)N1CCC[C@]12CC=CCCCC1(CCCC=CCCCCCC[C@@](C)(C(=O)N[C@@H](Cc3ccccc3Cl)C(=O)N[C@@H](Cc3csc4ccccc34)C(=O)N[C@H](C(N)=O)[C@@H](C)O)NC(=O)[C@H]([C@@H](C)O)NC(=O)[C@H](Cc3ccccc3)NC(=O)[C@H](C)NC(=O)[C@H](C)NC(=O)[C@H](CC(=O)O)NC(=O)[C@H](CC(=O)O)NC1=O)NC(=O)[C@H](CC(C)(C)C)NC(=O)[C@H](CC(=O)O)NC2=O (stereo partly shown)	39
CC(=O)N1CCC[C@]12CC=CCCCC1(CCCC=CCCCCCC[C@@](C)(C(=O)N[C@@H](Cc3ccccc3)C(=O)N[C@@H](Cc3csc4ccccc34)C(=O)N[C@@H](CCC(N)=O)C(N)=O)NC(=O)[C@H](C(C)C)NC(=O)[C@H](Cc3ccccc3)NC(=O)[C@H](C)NC(=O)[C@H](C)NC(=O)[C@H](CC(=O)O)NC(=O)[C@H](CC(=O)NC3CC3)NC1=O)NC(=O)[C@H](C)NC(=O)[C@H](CC(=O)O)NC2=O (stereo partly shown)	33
CC(=O)N1CCC[C@]12CC=CCCCC1(CCCC=CCCCOC(=O)N3CC[C@@](C(=O)N[C@@H](Cc4ccsc4)C(=O)N[C@@H](Cc4csc5ccccc45)C(=O)N[C@@H](CCC(N)=O)C(N)=O)(C3)NC(=O)[C@H](CC(C)C)NC(=O)[C@H](Cc3ccccc3)NC(=O)[C@H](C)NC(=O)C(C)(C)NC(=O)[C@H](CC(=O)O)NC(=O)[C@H](CC(=O)O)NC1=O)NC(=O)[C@H](CC(C)(C)C)NC(=O)[C@H](CC(=O)O)NC2=O (stereo partly shown)	35
CC(=O)N1CCC[C@]12CC=CCCCC1(CCCC=CCCCOC(=O)N3CC[C@@](C(=O)N[C@@H](Cc4ccccc4Cl)C(=O)N[C@@H](Cc4csc5ccccc45)C(=O)N[C@@H](C(N)=O)[C@H](C)O)(C3)NC(=O)[C@H](Cc3ccccc3)NC(=O)[C@H](Cc3ccccc3)NC(=O)[C@H](C)NC(=O)[C@H](C)NC(=O)[C@H](CC(=O)O)NC(=O)[C@H](CC(=O)O)NC1=O)NC(=O)[C@H](CC(C)(C)C)NC(=O)[C@H](CC(=O)O)NC2=O (stereo partly shown)	12
CC(=O)N1CCC[C@]12CC=CCCCC1(CCCC=CCCCOC(=O)N3CC[C@@](C(=O)N[C@@H](Cc4c(F)c(F)c(F)c(F)c4F)C(=O)N[C@@H](Cc4csc5ccccc45)C(=O)N[C@@H](CO)C(N)=O)(C3)NC(=O)[C@H]([C@@H](C)O)NC(=O)[C@H](Cc3ccccc3)NC(=O)[C@H](C)NC(=O)[C@H](C)NC(=O)[C@H](CC(=O)O)NC(=O)[C@H](CC(=O)O)NC1=O)NC(=O)[C@H](CC1CCCCC1)NC(=O)[C@H](CC(=O)O)NC2=O (stereo partly shown)	42

Please examine the following record next.
Fill in the blank: the reported Solubility of CC(=O)N1CCC[C@]12CC=CCCCC1(CCCC=CCCCCCC[C@@](C)(C(=O)N[C@@H](Cc3ccccc3)C(=O)N[C@@H](Cc3csc4ccccc34)C(=O)N[C@@H](CCC(N)=O)C(N)=O)NC(=O)[C@H](CCC(N)=O)NC(=O)[C@H](Cc3ccccc3)NC(=O)[C@H](C)NC(=O)[C@H](C)NC(=O)[C@H](CCC(=O)O)NC(=O)[C@H](CC(=O)O)NC1=O)NC(=O)[C@H](CCC(C)C)NC(=O)[C@H](CC(=O)O)NC2=O (stereo partly shown) is ____.
46

----------
- protocol.text: Solubility in PBS
- Assay type: physicochemical
- test.context: Solubility (uM)
measurement.type: Solubility (µM)
Your answer is read as µM, so omit the unit and give the number.

// below: answered compounds
compound	Solubility [µM]
CC(=O)N1CCC[C@]12CC=CCCCC1(CCCC=CCCCOC(=O)N3CC[C@@](C(=O)N[C@@H](Cc4ccccc4)C(=O)N[C@@H](Cc4csc5ccccc45)C(=O)N[C@@H](CO)C(N)=O)(C3)NC(=O)[C@H](CO)NC(=O)[C@H](Cc3ccccc3)NC(=O)[C@H](C)NC(=O)[C@H](C)NC(=O)[C@H](CC(=O)O)NC(=O)[C@H](CC(=O)O)NC1=O)NC(=O)[C@H](CC(C)(C)C)NC(=O)[C@H](CC(=O)O)NC2=O (stereo partly drawn)	47
CC(=O)N1CCC[C@]12CC=CCCCC1(CCCC=CCCCOC(=O)N3CC[C@@](C(=O)N[C@@H](Cc4ccccc4Cl)C(=O)N[C@@H](Cc4csc5ccccc45)C(=O)N[C@H](C(N)=O)[C@@H](C)O)(C3)NC(=O)[C@H](CO)NC(=O)[C@H](Cc3ccccc3)NC(=O)[C@H](C)NC(=O)[C@H](C)NC(=O)[C@H](CC(=O)O)NC(=O)[C@H](CC(=O)O)NC1=O)NC(=O)[C@H](Cc1ccccc1)NC(=O)[C@H](CC(=O)O)NC2=O (stereo partly drawn)	44

// next entry
Return reported Solubility; argument: CC[C@H](C)[C@@H]1NC(=O)[C@H](CC(=O)O)NC(=O)[C@]2(CC=CCCCC3(CCCC=CCCCCCC[C@@](C)(C(=O)N[C@@H](Cc4ccccc4)C(=O)N[C@@H](Cc4csc5ccccc45)C(=O)N[C@@H](CCC(N)=O)C(N)=O)NC(=O)[C@H](CCC(N)=O)NC(=O)[C@H](Cc4ccccc4)NC(=O)[C@H](C)NC(=O)[C@H](Cc4c[nH]c5ccccc45)NC(=O)[C@H](CCC(=O)O)NC(=O)[C@H](CC(=O)O)NC3=O)NC1=O)CCCN2C(C)=O (stereo partly drawn)
46
